Tested on: ovarian cancer cells with (OVCAR8, OVCAR4) or without (OVSAHO, CAOV3) MYC-HSF1 amplification
experiment.summary: Epigenetic inhibitor drug screen, cell viability (Cell Titer Blue)
Type: cell-based
condition.set: 10 uM, 48 hrs; average relative cell viability (vs 1% DMSO) of non-amplified cells (OVSAHO, CAOV3) minus that of MYC-HSF1 amplified cells (OVCAR8, OVCAR4); positive = greater response in amplified cells
Counter-ions that a name gives are not always drawn.
// class assignment uses Non Amp - AMP (POC) 10 uM with these ranges: lo (below -0.2 POC), med (-0.2 POC to below 10 POC), hi (10 POC or more)

# example entries with known answers
• Cc1cc(C)nc(SCC(=O)Nc2ncc(Cc3cccc4ccccc34)s2)n1 = lo
• Cc1nc(C(=O)NCC(=O)O)c(O)c2ccc(Oc3ccccc3)cc12 = med
• Cl.O=C(Nc1ccccc1-c1cn2c(CN3CCNCC3)csc2n1)c1cnc2ccccc2n1 [SRT1720 HCl] = med
• NC(=O)C1CCCc2c1[nH]c1ccc(Cl)cc21 (centres unmarked) [EX 527 (SEN0014196)] = lo
• CC(C(=O)Nc1cccc(/N=C/c2c(O)ccc3ccccc23)c1)c1ccccc1 (centres unmarked) [Salermide] = lo

Sort O=P(O)(O)OC(CO)CO [β-Glycerophosphate (sodium salt hydrate), β-Glycerophosphate] into one of the categories.
med

src = patent US20250011881A1
